# Tested on: KM12
# PROTOCOL_DETAILS: NCI tumour cell line growth inhibition, 48 h
Calls of active or inactive are those of the source. Rule as the data show it: active = GI50 up to about 1.1 µM and inactive = higher.
Outcome codes: active, inactive

COMPOUND | SYSTEM_UNDER_TEST | CATEGORY
CN(Cc1cnc2nc(N)nc(N)c2n1)c1ccc(C(=O)NC(CCC(=O)O)C(=O)O)c2ccccc12 (configuration not stated) | KM12 | active
O=[N+]([O-])c1ccc2c(c1)n1c(N3CCCC3)[n+]3ccccc3c1c1c3ccccn3c(N3CCCC3)[n+]21.[O-][Cl+3]([O-])([O-])[O-].[O-][Cl+3]([O-])([O-])[O-] | KM12 | inactive
COc1ccc2c3c(c4cc(OC)c(OC)cc4c2c1)CN1CCC[C@H]1[C@@H]3O | KM12 | active
CC(=O)NNC1=NN(C(C)=O)C2(S1)C(=O)Nc1ccc(C)cc12 (configuration not stated) | KM12 | inactive
CN(C)P(=O)(Oc1ccc(CC(NC(=O)OCc2ccccc2)C(=O)OCc2ccccc2)cc1)N(C)C (configuration not stated) | KM12 | inactive
O=C1c2cc3ccccc3cc2C2(c3ccc(Cl)cc3)NCCN12 (configuration not stated) | KM12 | inactive
O=C1CCCC2=C1CC1=C(CCCC1=O)N2c1cccc2ccccc12 | KM12 | inactive
CC(C)N1CSC(=S)N(Cc2ccccc2)C1 | KM12 | inactive
COCCN1C2=CCCCC2=Nc2c1nc(N)[nH]c2=O | KM12 | inactive
O=C1c2c(F)c(F)c(F)c(F)c2SC2=NCCN12 | KM12 | inactive
CCCCCCCCCCCC(=O)OCC1OC(n2cc(F)c(=O)[nH]c2=O)C(NC(=O)OCc2ccccc2)C(O)C1O (configuration not stated) | KM12 | inactive
C/C(=N\Nc1ccc([N+](=O)[O-])cc1[N+](=O)[O-])c1ccc2ccccc2n1 | KM12 | inactive
Cc1nn(-c2ccccc2)c2nc3c(c(C)nn3-c3ccccc3)c(-c3ccccc3Br)c12 | KM12 | inactive
CC(=O)NCC1OC2COC(c3ccccc3)OC2C2N=C(c3ccccc3)OC12 (configuration not stated) | KM12 | inactive
N#Cc1c(N)nc(Sc2ccccc2N)c(C#N)c1-c1ccc(Cl)cc1 | KM12 | inactive
COc1ccc(C)cc1NC(=S)C#N | KM12 | inactive
O=C1c2ccccc2C(=O)c2c1ccc1c2OCO1 | KM12 | inactive
COc1cc2ccc3c4ccccc4cnc3c2cc1OC | KM12 | inactive
c1ccc(SC2(Sc3ccccc3)CCCC2)cc1 | KM12 | inactive
CSc1nc2c(c(N(C)C)n1)C(O)n1c(nc3ccccc31)S2 (configuration not stated) | KM12 | inactive
CN(C(=O)c1ccncc1)c1ccccc1 | KM12 | inactive
NCCNCC(O)CO (configuration not stated) | KM12 | inactive

Ref: ChEMBL document CHEMBL1201862
